Where do these numbers come from? They come from ChEMBL document CHEMBL1123159.

- target-or-system: Beta-2 adrenergic receptor (Bos taurus)
- experiment-summary: Intrinsic activity was measured as concentration of beta-2 adrenergic receptor agonist required for cAMP production
- Format: functional
quantity-measured: cAMP production (pM min-1 mg-1)
Please respond with just the number, no unit label.

Ask: Name the recorded cAMP production (pM min-1 mg-1) of the compound listed here: CC(C)(C)NCC(O)c1ccc(O)c(C(N)=O)c1 (configuration not stated)
Reply: 24

Ask: Name the recorded cAMP production (pM min-1 mg-1) of the compound listed here: CC(C)(C)NCC(O)c1cc(Cl)c(O)c(Cl)c1 (configuration not stated)
Reply: 47

Ask: Name the recorded cAMP production (pM min-1 mg-1) of the compound listed here: CC(C)(C)NCC(O)c1ccc(O)cc1 (configuration not stated)
Reply: 97

Ask: Name the recorded cAMP production (pM min-1 mg-1) of the compound listed here: CC(C)(C)NCC(O)c1ccccc1 (configuration not stated)
Reply: 43

Ask: Name the recorded cAMP production (pM min-1 mg-1) of the compound listed here: CC(C)(C)NCC(O)c1ccccc1Cl (configuration not stated)
Reply: 61

Ask: Name the recorded cAMP production (pM min-1 mg-1) of the compound listed here: CC(C)(C)NCC(O)c1cc(Cl)c(N)c(Cl)c1 (configuration not stated)
Reply: 64

Ask: Name the recorded cAMP production (pM min-1 mg-1) of the compound listed here: CNc1cc(C(O)CNC(C)(C)C)ccc1O (configuration not stated)
Reply: 115

---

- experiment-summary: log(1/ISA) value of the compound
Give Log 1/ISA for every item shown.
Please respond with just the number, no unit label.

Ask: Name the recorded Log 1/ISA of the molecule listed here: CC(C)(C)NCC(O)c1ccccc1Cl (stereo not drawn) [TULOBUTEROL]
Reply: 0.3

Ask: Name the recorded Log 1/ISA of the molecule listed here: CC(C)(C)NCC(O)c1ccc(O)c(O)c1 (stereo not drawn) [COLTEROL]
Reply: 0.17

Ask: Name the recorded Log 1/ISA of the molecule listed here: CC(C)(C)NCC(O)c1ccc(O)cc1 (stereo not drawn)
Reply: 0.1

Ask: Name the recorded Log 1/ISA of the molecule listed here: CC(C)(C)NCC(O)c1cc(Cl)c(O)c(Cl)c1 (stereo not drawn)
Reply: 0.41

Ask: Name the recorded Log 1/ISA of the molecule listed here: CC(C)(C)NCC(O)c1ccc(O)c(N)c1 (stereo not drawn)
Reply: 0.17

Ask: Name the recorded Log 1/ISA of the molecule listed here: CC(C)(C)NCC(O)c1ccc(O)c(C(N)=O)c1 (stereo not drawn)
Reply: 0.7

Ask: Name the recorded Log 1/ISA of the molecule listed here: CC(C)(C)NCC(O)c1ccccc1 (stereo not drawn)
Reply: 0.46

Ask: Name the recorded Log 1/ISA of the molecule listed here: CNc1cc(C(O)CNC(C)(C)C)ccc1O (stereo not drawn)
Reply: 0.02

---

- target-or-system: Beta-2 adrenergic receptor (Bos taurus)
- experiment-summary: Intrinsic activity was measured as concentration of beta-2 adrenergic receptor agonist required for cAMP production
- Type: functional
quantity-measured: cAMP production (pM min-1 mg-1)

Ask: Name the recorded cAMP production (pM min-1 mg-1) of the molecule listed here: CC(C)(C)NCC(O)c1cc(O)cc(O)c1 (centres undefined)
Reply: 50

Ask: Name the recorded cAMP production (pM min-1 mg-1) of the molecule listed here: CC(C)(C)NCC(O)c1ccc(O)c(N)c1 (centres undefined)
Reply: 83

Ask: Name the recorded cAMP production (pM min-1 mg-1) of the molecule listed here: CC(C)(C)NCC(O)c1ccc(O)c(O)c1 (centres undefined)
Reply: 83

Ask: Name the recorded cAMP production (pM min-1 mg-1) of the molecule listed here: CC(C)(C)NCC(O)c1ccc(O)c(CO)c1 (centres undefined)
Reply: 122
